# testSystem: T1, Gid10^57–292 (S. cerevisiae, UniProt P53242 57-292)
# T1 sequence: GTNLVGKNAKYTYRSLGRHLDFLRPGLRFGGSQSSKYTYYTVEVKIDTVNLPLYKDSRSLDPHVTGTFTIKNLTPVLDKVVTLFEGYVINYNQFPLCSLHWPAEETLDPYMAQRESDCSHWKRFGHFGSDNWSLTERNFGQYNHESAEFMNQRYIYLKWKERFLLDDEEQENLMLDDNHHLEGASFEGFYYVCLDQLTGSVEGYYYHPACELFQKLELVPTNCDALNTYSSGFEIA
# experimentalDetails: ITC
measurementName: Kd (nM)
Numeric answer only, unit nM assumed.

Q) Param item = PFITSRPVAW [Art2 degron peptide PFITSRPVAW] ; retrieve measured Kd.
A) 1030
